// provenance: patent US10165779B2

Each entry below lists one item and its recorded herbicidal efficacy Echinochloa crus-galli value.
Tested on: Echinochloa crus-galli
Assay: Paddy herbicidal activity test
Assay type: in vivo
Settings: 1g a.i./10a; irrigated paddy pot, treated at 3.5 leaf stage of Echinochloa crus-galli; 30 days
reportedMetric: herbicidal efficacy Echinochloa crus-galli

compound: COC(=O)N(C(=O)OC)c1c(C#N)cnn1-c1nn2c(c1Br)CCCC2 [Compound 4]
testResult: 10 (10: 100%)

compound: CCOC(=O)N(C(=O)OC)c1c(C#N)cnn1-c1nn2c(c1Cl)CCCC2 [Compound 1]
testResult: 9 (9: 90% to less than 100%)

compound: COC(=O)N(C(=O)OC)c1c([N+](=O)[O-])cnn1-c1nn2c(c1Br)CCCC2 [Compound 5]
testResult: 9 (9: 90% to less than 100%)

compound: C=CCOC(=O)N(C(=O)OCC=C)c1c(C#N)cnn1-c1nn2c(c1Cl)CCCC2 [Compound 14]
testResult: 10 (10: 100%)

compound: CCOC(=O)N(C(=O)OCC)c1c(C#N)cnn1-c1nn2c(c1Cl)CCCC2 [Compound 6]
testResult: 10 (10: 100%)

compound: CCOC(=O)N(C(=O)OCC)c1c(C#N)cnn1-c1nn2c(c1Br)CCCC2 [Compound 8]
testResult: 10 (10: 100%)
